max activation listing for selected compounds.
Study Target: D(3) dopamine receptor (Homo sapiens) (UniProt P35462)
Sequence (P35462 whole entry, looked up): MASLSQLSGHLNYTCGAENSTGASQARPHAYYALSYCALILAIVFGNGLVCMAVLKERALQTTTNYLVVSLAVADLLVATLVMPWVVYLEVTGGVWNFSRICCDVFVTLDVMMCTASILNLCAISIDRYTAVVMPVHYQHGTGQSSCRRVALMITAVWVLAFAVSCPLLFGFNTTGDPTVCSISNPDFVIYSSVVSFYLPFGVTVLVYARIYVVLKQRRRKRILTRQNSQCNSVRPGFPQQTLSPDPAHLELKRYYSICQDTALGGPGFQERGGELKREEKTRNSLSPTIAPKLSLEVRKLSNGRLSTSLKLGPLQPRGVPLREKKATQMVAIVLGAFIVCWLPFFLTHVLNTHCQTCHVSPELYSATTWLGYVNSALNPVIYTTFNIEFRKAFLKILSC
Test Summary: qHTS of D3 Dopamine Receptor Agonist: qHTS; further: 0% is about no effect
Stated Conditions: D3R DiscoveRx beta-arrestin cells, luminescence, 90 min; hits give high values
Among all 410,000 compounds or so, about 2,400 (0.59%) were called active. Shown is part of a subset that was picked to be rich in actives.

Input line: Consider the compound shown here: CC1=C(/C=C/C(C)=C/C=C/C(C)=C/C=C/C=C(C)/C=C/C=C(C)/C=C/C2=C(C)CCCC2(C)C)C(C)(C)CCC1 What is its recorded max activation?
Output line: -12.4% (inactive)

Input line: Consider the compound shown here: Cc1cccc(NC(=O)N2CCC(CN3CCc4ccccc4C3)CC2)c1C What is its recorded max activation?
Output line: -18.9% (inactive)

Input line: Consider the compound shown here: CC(Oc1ccccc1)C(=O)N[C@@H]1C(=O)N2[C@@H]1SC(C)(C)[C@@H]2C(=O)O (stereo partly specified) What is its recorded max activation?
Output line: 8.72% (inactive)

Input line: Consider the compound shown here: Cc1c(C)n(Cc2ccc(Cl)cc2)c2ccc(C(=O)N3CCN(c4ccccc4F)CC3)cc12 What is its recorded max activation?
Output line: -3.88% (inactive)

Input line: Consider the compound shown here: CCOCCc1nn2c(=O)cc(COC(=O)CNC(=O)c3ccc(C(C)(C)C)cc3)nc2s1 What is its recorded max activation?
Output line: 6.28% (inactive)

Input line: Consider the compound shown here: COc1ccc(N2CCN(C(=O)CCSCc3ccccc3F)CC2)cc1 What is its recorded max activation?
Output line: 1.03% (inactive)

Input line: Consider the compound shown here: Cc1ccc2c(=O)c(C(=O)c3ccc(F)cc3)cn(CC(=O)NC3CCCCC3)c2n1 What is its recorded max activation?
Output line: -2.6% (inactive)

Input line: Consider the compound shown here: Cc1cccc(C(=O)OC(C)C(=O)NC2CCCc3ccccc32)c1O (stereo unspecified) What is its recorded max activation?
Output line: -10.5% (inactive)

Input line: Consider the compound shown here: CC(=O)Oc1ccccc1C(=O)Nc1ncc([N+](=O)[O-])s1 What is its recorded max activation?
Output line: 6.84% (inactive)

Input line: Consider the compound shown here: CC(C)=CCc1c(O)c(CC=C(C)C)c2occ(-c3ccc(O)cc3)c(=O)c2c1O What is its recorded max activation?
Output line: 84.1% (active)

Input line: Consider the compound shown here: CO/N=C(\C(=O)N[C@@H]1C(=O)N2C(C(=O)O)=CCS[C@H]12)c1csc(N)n1 What is its recorded max activation?
Output line: 3.03% (inactive)

###

Study Target: D(3) dopamine receptor (Homo sapiens) (UniProt P35462)
Test Summary: qHTS of D3 Dopamine Receptor Agonist: qHTS; further: 0% is about no effect
Stated Conditions: D3R DiscoveRx beta-arrestin cells, luminescence, 90 min; hits give high values
Among all 410,000 compounds or so, about 2,400 (0.59%) were called active. The full list was thinned out, with actives kept by preference.
Measurement Name: max activation (%)
Note: unit % is implicit; provide only the numeric part.

Worked examples, 3 molecules total:
smiles_text=COc1ccc2ncc3c(-c4ccc(C)c(C)c4)nn(CC(=O)NC4CCCC4)c3c2c1 measurement_name="max activation" readout_number=-3.77
smiles_text=COc1ccc(N(Cc2ccc(N(C)C)cc2)C(=O)c2ccc(S(C)(=O)=O)cc2)cc1 measurement_name="max activation" readout_number=-1.61
smiles_text=C#C[C@]1(O)CC[C@H]2[C@@H]3CCC4=C/C(=N/O)CC[C@@H]4[C@H]3CC[C@@]21CC measurement_name="max activation" readout_number=4.22

Lab note: next molecule to report on.
Input line: Consider the molecule shown here: O=C1CSc2ccc(S(=O)(=O)NCc3ccccc3)cc2N1 What is its recorded max activation?
Output line: -4.53
